Biological target: hNav1.7 (Homo sapiens, UniProt Q15858)
Sequence (Q15858 1-1977 isoform Q15858-3): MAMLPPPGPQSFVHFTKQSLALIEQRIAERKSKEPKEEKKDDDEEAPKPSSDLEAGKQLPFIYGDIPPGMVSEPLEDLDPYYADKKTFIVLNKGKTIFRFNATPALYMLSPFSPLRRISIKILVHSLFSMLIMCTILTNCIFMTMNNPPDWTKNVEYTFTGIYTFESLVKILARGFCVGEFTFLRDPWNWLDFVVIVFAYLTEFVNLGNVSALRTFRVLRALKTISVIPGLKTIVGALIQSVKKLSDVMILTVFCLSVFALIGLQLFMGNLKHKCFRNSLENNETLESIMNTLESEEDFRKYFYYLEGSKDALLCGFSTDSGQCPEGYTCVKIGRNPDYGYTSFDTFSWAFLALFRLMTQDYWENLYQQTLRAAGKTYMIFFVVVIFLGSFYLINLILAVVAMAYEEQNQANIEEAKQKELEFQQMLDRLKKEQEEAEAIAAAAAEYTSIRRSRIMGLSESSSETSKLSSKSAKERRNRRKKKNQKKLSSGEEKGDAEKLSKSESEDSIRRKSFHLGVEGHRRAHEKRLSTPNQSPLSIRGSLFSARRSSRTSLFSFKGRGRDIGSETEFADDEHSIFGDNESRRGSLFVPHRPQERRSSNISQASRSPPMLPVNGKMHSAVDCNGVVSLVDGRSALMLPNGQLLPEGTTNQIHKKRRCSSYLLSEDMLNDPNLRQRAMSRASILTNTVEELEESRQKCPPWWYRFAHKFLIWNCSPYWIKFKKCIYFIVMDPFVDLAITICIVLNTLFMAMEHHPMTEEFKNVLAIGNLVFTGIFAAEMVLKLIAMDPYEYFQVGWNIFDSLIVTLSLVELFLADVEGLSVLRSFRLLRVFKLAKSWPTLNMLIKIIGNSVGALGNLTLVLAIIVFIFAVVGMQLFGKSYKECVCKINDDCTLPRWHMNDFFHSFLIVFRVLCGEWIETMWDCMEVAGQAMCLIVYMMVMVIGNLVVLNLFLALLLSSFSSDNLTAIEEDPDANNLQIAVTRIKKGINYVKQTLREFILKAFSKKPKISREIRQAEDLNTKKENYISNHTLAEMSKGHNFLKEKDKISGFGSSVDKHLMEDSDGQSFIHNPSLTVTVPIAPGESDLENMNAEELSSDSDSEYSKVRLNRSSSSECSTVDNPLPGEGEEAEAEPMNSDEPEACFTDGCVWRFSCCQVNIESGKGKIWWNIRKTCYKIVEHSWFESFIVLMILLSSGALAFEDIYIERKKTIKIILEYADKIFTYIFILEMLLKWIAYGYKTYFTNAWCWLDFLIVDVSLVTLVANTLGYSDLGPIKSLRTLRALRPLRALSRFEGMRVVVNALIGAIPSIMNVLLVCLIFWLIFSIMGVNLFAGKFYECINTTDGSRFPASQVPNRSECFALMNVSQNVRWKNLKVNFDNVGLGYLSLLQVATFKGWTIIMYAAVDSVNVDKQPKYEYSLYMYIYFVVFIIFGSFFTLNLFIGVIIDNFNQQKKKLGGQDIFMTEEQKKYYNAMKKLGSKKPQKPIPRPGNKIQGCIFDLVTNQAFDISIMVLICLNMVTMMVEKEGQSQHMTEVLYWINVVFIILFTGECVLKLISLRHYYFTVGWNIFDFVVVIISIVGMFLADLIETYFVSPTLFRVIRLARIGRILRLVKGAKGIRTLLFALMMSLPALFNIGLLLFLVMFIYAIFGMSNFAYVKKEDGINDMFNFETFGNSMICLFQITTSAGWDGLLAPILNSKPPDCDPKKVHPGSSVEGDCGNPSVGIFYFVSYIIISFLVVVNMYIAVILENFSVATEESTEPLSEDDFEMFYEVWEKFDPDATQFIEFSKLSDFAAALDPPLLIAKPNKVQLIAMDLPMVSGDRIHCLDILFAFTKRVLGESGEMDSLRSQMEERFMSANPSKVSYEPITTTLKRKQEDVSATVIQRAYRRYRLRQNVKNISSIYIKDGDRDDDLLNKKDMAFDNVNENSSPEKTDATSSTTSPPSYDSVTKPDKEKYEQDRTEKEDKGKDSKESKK
Sequence (Q07699 19-218 partner): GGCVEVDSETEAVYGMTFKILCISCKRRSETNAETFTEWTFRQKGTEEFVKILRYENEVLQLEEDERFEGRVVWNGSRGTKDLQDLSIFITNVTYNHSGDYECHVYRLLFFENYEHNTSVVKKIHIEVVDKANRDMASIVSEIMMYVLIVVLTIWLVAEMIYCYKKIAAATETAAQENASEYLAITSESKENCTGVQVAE
Test: Tritiated compound binding (LBA) to membranes from cells expressing hNav1.7 and the β1 subunit, competitive binding
Conditions: competitive binding vs 100 pM [3H]compound, 18 h, room temperature, membranes with hNav1.7 and β1 subunit
Where a name gives a salt, the structure may show the parent alone.
Measurement label: log10(IC50) (log10 of the value in nM)
The base-10 logarithm of IC50, taken with IC50 in nM, is what appears here.

Problem: Report log10(IC50) for CC[C@@H](C)[C@H](NC(=O)c1cc(Cl)c(Oc2cnc(OCC(C)C)c(Cl)c2)cc1F)C(=O)O [Example 186] tested on hNav1.7 (Homo sapiens, UniProt Q15858).
Solution: 2.54

Problem: Form field: log10(IC50) recorded for Cc1nn(C2CCN(c3ccc(Cl)c(C(F)(F)F)n3)CC2)c2cc(F)c(C(=O)N3CCC[C@H]3C(=O)O)cc12 [Example 195, trifluoroacetate] with hNav1.7 (Homo sapiens, UniProt Q15858) (enter value)
Solution: 3.28

Problem: API: value(readout= log10(IC50), system= hNav1.7 (Homo sapiens, UniProt Q15858), query= CC1[C@H](O)CN(C(=O)c2cc(C3CC3)c(OCC3(F)CCN([C@@H](C)c4cc(Cl)cc(Cl)c4)CC3)cc2F)[C@@H]1C(=O)O (some centres unmarked) [Example 208] )
Solution: 1.91

Problem: What is its log10(IC50) for hNav1.7 (Homo sapiens, UniProt Q15858)? Entry: CC1(COc2cc(F)c(C(=O)N3CCC[C@H]3C(=O)O)cc2C2CC2)CCC2(CC1)CC2 [Example 58]
Solution: 1.92

Problem: What value of log10(IC50) on hNav1.7 (Homo sapiens, UniProt Q15858) does CC1(C)CCC(C(=O)O)N1C(=O)c1cc(C2CC2)c(OCC23CC4CC(CC(C4)C2)C3)cc1F (centres unmarked) [Example 147] have?
Solution: 2.41

Problem: Return log10(IC50) measured with hNav1.7 (Homo sapiens, UniProt Q15858) given this compound: C[C@@H]1[C@@H](C(=O)O)N(C(=O)c2cc(C3CC3)c(OCC34CC5CC(CC(C5)C3)C4)cc2F)C[C@@H]1F [Example 219]
Solution: 0.81

Problem: Checklist item: log10(IC50) tested on hNav1.7 (Homo sapiens, UniProt Q15858), entry C[C@H]1OCN(C(=O)c2cc(C3CC3)c(OCC3CCN(C(c4cc(Cl)cc(Cl)c4)C(F)(F)F)CC3)cc2F)[C@@H]1C(=O)O (some centres unmarked) [Example 226] , value?
Solution: 1.08

Problem: Return log10(IC50) measured with hNav1.7 (Homo sapiens, UniProt Q15858) given this compound: C[C@H](c1cc(Cl)cc(Cl)c1)N1CCC(C)(COc2cc(F)c(C(=O)N3C[C@H](F)C[C@H]3C(=O)O)cc2C2CC2)CC1 (single isomer, unassigned) [Example 132b]
Solution: 1.38

Problem: # query: log10(IC50) | item O=C(O)[C@@H]1[C@H](F)CCN1C(=O)c1cc(C2CC2)c(OCC23CC4CC(CC(C4)C2)C3)cc1F [Example 63] | system: hNav1.7 (Homo sapiens, UniProt Q15858)
Solution: 2.23

Problem: Reported log10(IC50) for hNav1.7 (Homo sapiens, UniProt Q15858), given O=C(O)[C@@H]1[C@@H](F)CCN1C(=O)c1cc(C2CC2)c(OCC23CC4CC(CC(C4)C2)C3)cc1F [Example 64] ?
Solution: 1.78

Problem: Request: log10(IC50), test system hNav1.7 (Homo sapiens, UniProt Q15858), entry O=C(O)[C@@H]1CCCN1C(=O)c1cc(C2CCC2)c(OCC23CC4CC(CC(C4)C2)C3)cc1F [Example 27]
Solution: 1.34

Problem: Record lookup: for hNav1.7 (Homo sapiens, UniProt Q15858), what log10(IC50) belongs to N#C[C@H]1C[C@@H](C(=O)O)N(C(=O)c2cc(C3CC3)c(OCC34CC5CC(CC(C5)C3)C4)cc2F)C1 [Example 144] ?
Solution: 2.94

Problem: Hi! What's the reported log10(IC50) for O=C(O)C1COCCN1C(=O)c1cc(C2CC2)c(OCC23CC4CC(CC(C4)C2)C3)cc1F (centres unmarked) [Example 72] on hNav1.7 (Homo sapiens, UniProt Q15858)?
Solution: 3.56

Problem: Param readout = log10(IC50); param system = hNav1.7 (Homo sapiens, UniProt Q15858); param query = C[C@@H](Oc1cnc(C2CC2)c(Cl)c1)c1cc(F)c(C(=O)N2CCC[C@H]2C(=O)O)cc1C1CC1 [Example 15] ; response: value
Solution: 3.84

* * *

Target: human NaV1.7 (Homo sapiens)
Construct: permanently transfected with an expression vector containing the full-length cDNA coding for the desired human sodium channel α-subunit
Sequence (Q15858 1-1977 isoform Q15858-3): as the sequence (Q15858 1-1977 isoform Q15858-3) above
Sequence (Q07699 19-218 partner): as the sequence (Q07699 19-218 partner) above
Test: Patch voltage clamp electrophysiology assay (EP), NaV1.7
Details: HEK-293 cells stably expressing NaV1.7 with β1 subunit; whole-cell patch clamp, membrane potential −60 mV (inactivated state)
Procedure: The following patch voltage clamp electrophysiology studies were performed on representative compounds of the invention using human embryonic kidney cells (HEK), permanently transfected with an expression vector containing the full-length cDNA coding for the desired human sodium channel α-subunit, grown in culture media containing 10% FBS, 1% PSG, and 0.5 mg/mL G418 at 37° C. with 5% CO2. […]
Structures can show the parent of a compound that is named as a salt.
Measurement label: pIC50
Note: pIC50 values are expressed as the negative base-10 logarithm of concentration in M.

Problem: Which pIC50 value belongs to C[C@H]1OCN(C(=O)c2cc(C3CC3)c(OCC3CCN(C(c4cc(Cl)cc(Cl)c4)C(F)(F)F)CC3)cc2F)[C@@H]1C(=O)O (stereo partly shown) ?
Solution: 6.89

Problem: Any idea what its pIC50 is? The compound is "O=C(O)[C@@H]1CCCCN1C(=O)c1cc(C2CC2)c(OCC23CC4CC(CC(C4)C2)C3)cc1F"
Solution: 5.70

Problem: Given the compound "O=C(O)[C@@H]1C[C@@H](F)CN1C(=O)c1cc(C2CC2)c(OCC2(F)CCN(Cc3cc(C(F)(F)F)ccc3Cl)CC2)cc1F" , what is its reported pIC50?
Solution: 6.89

Problem: What pIC50 value was documented for this compound, CC(C)COc1ncc(Oc2cc(F)c(C(=O)N3CCC[C@H]3C(=O)O)cc2C2CC2)cc1C1CC1 [Example 98, trifluoroacetic acid salt] ?
Solution: 6.13

Problem: Query: pIC50; subject: O=C(NC(C(=O)O)C1CCC1)c1cc(C2CC2)c(OCC2(F)CCN(Cc3cc(C(F)(F)F)ccc3Cl)CC2)cc1F (stereo not shown)
Solution: 5.00

Problem: Looking for the measured pIC50 of "O=C(O)[C@@H]1CCCN1C(=O)c1cc(C2CC2)c(OC2CCN(Cc3cc(Cl)cc(Cl)c3)CC2)cc1F" , can you help?
Solution: 5.70

Problem: # pIC50 lookup, item "CC(C)[C@H](NC(=O)c1cc(C2CC2)c(OCC23CC4CC(CC(C4)C2)C3)cc1F)C(=O)O"
Solution: 6.10

Problem: Which value of pIC50 has been reported for CC(c1cc(Cl)cc(Cl)c1)N1CCC(COc2cc(F)c(C(=O)N3[C@@H](C(=O)O)C[C@H]4CCC[C@H]43)cc2C2CC2)CC1 (stereo partly shown) in the records?
Solution: 5.38

Problem: Would you kindly share the measured pIC50 for O=C(O)[C@@H]1CCCN1C(=O)c1cc(C2CC2)c(OCC2(F)CN(Cc3ccc(Cl)cc3C(F)(F)F)C2)cc1F [Example 99, trifluoroacetic acid salt] ?
Solution: 6.26

Problem: Any idea what its pIC50 is? The compound is "C[C@H]1CCN(C(=O)c2cc(C3CC3)c(OCC34CC5CC(CC(C5)C3)C4)cc2F)[C@@H]1C(=O)O"
Solution: 6.52

Problem: pIC50 lookup needed for O=C(O)C1COCCN1C(=O)c1cc(C2CC2)c(OCC23CC4CC(CC(C4)C2)C3)cc1F (stereo not shown) , thanks.
Solution: 5.25

Problem: Fill in: pIC50 of "COC[C@@H](c1cc(Cl)cc(Cl)c1)N1CCC(COc2cc(F)c(C(=O)N3C[C@H](F)C[C@H]3C(=O)O)cc2C2CC2)CC1" is ___
Solution: 6.60

Problem: Data request, read-out pIC50, for O=C(O)[C@@H]1CCCN1C(=O)c1cc(C2CC2)c(OC[C@H]2CCN(C(c3ccccc3)c3ccccc3)C2)cc1F (single isomer, unassigned) [Example 139a]
Solution: 5.30

* * *

I'd be grateful if you could share measured pIC50 for these entries.
Biological target: NaV1.5 (Homo sapiens, UniProt Q14524)
Construct: permanently transfected with an expression vector containing the full-length cDNA coding for the desired human sodium channel α-subunit; expressed in transfected cells; host or cells: HEK-293
Sequence (Q14524 whole entry): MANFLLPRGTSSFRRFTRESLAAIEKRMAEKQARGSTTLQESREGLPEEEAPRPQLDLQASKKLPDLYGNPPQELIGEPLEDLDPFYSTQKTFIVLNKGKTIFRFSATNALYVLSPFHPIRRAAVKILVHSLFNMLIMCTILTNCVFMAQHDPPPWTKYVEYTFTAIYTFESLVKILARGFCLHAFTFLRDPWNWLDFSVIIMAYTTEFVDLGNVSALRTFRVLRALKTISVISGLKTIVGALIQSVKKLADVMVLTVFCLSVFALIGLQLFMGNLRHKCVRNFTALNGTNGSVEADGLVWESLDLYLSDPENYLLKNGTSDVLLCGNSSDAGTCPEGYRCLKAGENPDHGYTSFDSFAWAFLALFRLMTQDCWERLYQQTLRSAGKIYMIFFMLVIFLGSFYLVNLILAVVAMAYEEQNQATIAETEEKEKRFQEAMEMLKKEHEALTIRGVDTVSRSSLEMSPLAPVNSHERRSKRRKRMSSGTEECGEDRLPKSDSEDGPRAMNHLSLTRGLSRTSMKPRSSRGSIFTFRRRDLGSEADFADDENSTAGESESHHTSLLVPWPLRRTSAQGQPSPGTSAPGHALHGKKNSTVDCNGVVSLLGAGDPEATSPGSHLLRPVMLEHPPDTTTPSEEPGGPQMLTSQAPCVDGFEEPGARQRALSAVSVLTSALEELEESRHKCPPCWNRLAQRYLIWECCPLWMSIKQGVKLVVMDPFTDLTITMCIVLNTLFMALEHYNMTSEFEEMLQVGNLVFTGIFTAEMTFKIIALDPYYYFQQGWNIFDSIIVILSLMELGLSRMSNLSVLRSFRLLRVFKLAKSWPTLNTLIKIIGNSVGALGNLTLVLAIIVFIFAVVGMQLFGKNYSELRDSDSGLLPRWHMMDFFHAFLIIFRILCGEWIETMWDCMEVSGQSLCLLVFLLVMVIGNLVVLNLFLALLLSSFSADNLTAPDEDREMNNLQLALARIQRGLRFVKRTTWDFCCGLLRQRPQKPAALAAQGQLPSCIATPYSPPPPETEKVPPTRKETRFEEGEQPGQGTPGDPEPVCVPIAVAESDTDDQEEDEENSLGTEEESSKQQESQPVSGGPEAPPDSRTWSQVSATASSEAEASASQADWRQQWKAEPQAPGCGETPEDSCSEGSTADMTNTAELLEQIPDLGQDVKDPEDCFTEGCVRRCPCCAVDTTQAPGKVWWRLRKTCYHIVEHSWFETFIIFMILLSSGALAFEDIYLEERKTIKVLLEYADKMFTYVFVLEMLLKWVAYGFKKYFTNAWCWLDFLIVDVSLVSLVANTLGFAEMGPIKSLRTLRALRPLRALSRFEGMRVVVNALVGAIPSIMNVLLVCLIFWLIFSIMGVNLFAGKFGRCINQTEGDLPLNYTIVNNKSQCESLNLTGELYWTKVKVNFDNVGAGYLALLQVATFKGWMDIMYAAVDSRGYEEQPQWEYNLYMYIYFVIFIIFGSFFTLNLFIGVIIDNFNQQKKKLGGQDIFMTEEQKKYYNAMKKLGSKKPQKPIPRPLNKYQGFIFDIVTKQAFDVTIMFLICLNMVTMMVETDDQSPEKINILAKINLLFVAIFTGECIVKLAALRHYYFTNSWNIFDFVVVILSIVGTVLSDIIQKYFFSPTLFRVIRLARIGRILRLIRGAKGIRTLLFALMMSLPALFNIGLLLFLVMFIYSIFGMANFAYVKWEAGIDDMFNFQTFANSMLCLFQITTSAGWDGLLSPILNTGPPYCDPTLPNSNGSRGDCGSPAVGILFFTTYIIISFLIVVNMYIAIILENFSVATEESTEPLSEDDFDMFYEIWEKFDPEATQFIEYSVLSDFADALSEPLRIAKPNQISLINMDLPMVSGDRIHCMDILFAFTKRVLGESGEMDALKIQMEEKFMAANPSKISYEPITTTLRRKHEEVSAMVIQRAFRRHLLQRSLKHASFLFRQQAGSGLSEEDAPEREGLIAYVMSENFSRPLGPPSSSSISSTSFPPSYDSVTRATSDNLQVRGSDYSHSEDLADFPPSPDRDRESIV
Assay: Patch voltage clamp electrophysiology assay (EP), NaV1.5
Assay type: cell-based
Settings: HEK-293 cells stably expressing NaV1.5 with β1 subunit; whole-cell patch clamp, membrane potential −60 mV (inactivated state); read-out: Nav1.5
Protocol: The following patch voltage clamp electrophysiology studies were performed on representative compounds of the invention using human embryonic kidney cells (HEK), permanently transfected with an expression vector containing the full-length cDNA coding for the desired human sodium channel α-subunit, grown in culture media containing 10% FBS, 1% PSG, and 0.5 mg/mL G418 at 37° C. with 5% CO2. […]
Field pIC50 (float): negative decimal logarithm of the concentration in molar.

Problem: Which pIC50 value is on record for C[C@H](c1cc(Cl)cc(Cl)c1)N1CCC(C#N)(COc2cc(F)c(C(=O)N3C[C@H](F)C[C@H]3C(=O)O)cc2C2CC2)CC1 (single isomer, unassigned) [Example 126a] ?
Solution: 5.00

Problem: May I ask what pIC50 has been recorded for "CC(C)Nc1ccc(F)cc1CN1CCC(COc2cc(F)c(C(=O)N3C[C@H](F)C[C@H]3C(=O)O)cc2C2CC2)CC1" ?
Solution: 4.92

Problem: State the recorded pIC50 for this entry: "O=C(O)[C@@H]1C=C(C(F)(F)F)CN1C(=O)c1cc(C2CC2)c(OCC23CC4CC(CC(C4)C2)C3)cc1F"
Solution: 4.72

Problem: If you can, please state the reported pIC50 value of CC1(COc2cc(F)c(C(=O)N3C[C@H](F)C[C@H]3C(=O)O)cc2C2CC2)CN([C@@H](c2ccccc2)c2cc(Cl)cc(Cl)c2)C1 (single isomer, unassigned) .
Solution: 5.07

Problem: # pIC50 lookup, item "O=C(O)[C@@H]1[C@H](O)CCN1C(=O)c1cc(C2CC2)c(OCC23CC4CC(CC(C4)C2)C3)cc1F"
Solution: 4.55

Problem: Suppose we examine the compound "O=C(O)[C@@H]1[C@@H](F)CCN1C(=O)c1cc(C2CC2)c(OCC23CC4CC(CC(C4)C2)C3)cc1F" ; what pIC50 value has been reported?
Solution: 5.07
